Assay: Half life in mouse at 10 mg/kg
Assay type: ADME, organism-based
Set-up: dose 10 mg/kg
Conditions: in vivo
REPORTED METRIC: half-life
Please give the number followed by its unit.

Give the measured half-life of Cc1ccc(C(=O)N(CCCN)C(c2nn3c(Cl)ccc3c(=O)n2Cc2ccccc2)C2CC2)cc1 (stereo unspecified) .
270 min

###

Assay: Clearance in mouse at 10 mg/kg
Type: ADME, organism-based
Parameters: dose 10 mg/kg
Conditions: in vivo
REPORTED METRIC: clearance (L/h/kg)
A number alone suffices; assume L/h/kg.

For the compound shown here, Cc1ccc(C(=O)N(CCCN)C(c2nn3c(Cl)ccc3c(=O)n2Cc2ccccc2)C2CC2)cc1 (stereo unspecified) , give the reported clearance.
0.96
